# Species: Homo sapiens
# Experimental Protocol: Selectivity for human CB2 receptor over human CB1 receptor

- Compound: "CCCCCn1cc(C(=O)N[C@H](C)c2ccccc2)c(=O)c2ccc(OCC)cc21"
  Limit Qualifier: "="
  Ratio Ki: 1.2
- Compound: "CCCCCn1cc(C(=O)NC23CC4CC(CC(C4)C2)C3)c(=O)c2ccc(F)cc21"
  Limit Qualifier: "="
  Ratio Ki: 38.1
- Compound: "C=CCn1cc(C(=O)NC23CC4CC(CC(C4)C2)C3)c(=O)c2c(OC)ccc(OC)c21"
  Limit Qualifier: ">"
  Ratio Ki: 1090
- Compound: "CCCCCn1cc(C(=O)NC23CC4CC(CC(C4)C2)C3)c(=O)c2ccccc21"
  Limit Qualifier: "="
  Ratio Ki: 9
- Compound: "CCCCCn1cc(C(=O)NC23CC4CC(CC(C4)C2)C3)c(=O)c2cc(Br)ccc21"
  Limit Qualifier: "="
  Ratio Ki: 69.4
- Compound: "C=CCCn1cc(C(=O)NC23CC4CC(CC(C4)C2)C3)c(=O)c2cc(Br)ccc21"
  Limit Qualifier: "="
  Ratio Ki: 113
- Compound: "CCCCCn1cc(C(=O)NC23CC4CC(CC(C4)C2)C3)c(=O)c2cc(Oc3ccc(F)c(Cl)c3)ccc21"
  Limit Qualifier: "="
  Ratio Ki: 46
- Compound: "CCCCCn1cc(C(=O)NC23CC4CC(CC(C4)C2)C3)c(=O)c2ccc(Cl)c(C)c21"
  Limit Qualifier: ">"
  Ratio Ki: 393
- Compound: "CCCCCn1cc(C(=O)N[C@H](C)c2ccccc2)c(=O)c2ccc(N3CCCC3)cc21"
  Limit Qualifier: "="
  Ratio Ki: 9.4
- Compound: "CCCCCn1cc(C(=O)NC23CC4CC(CC(C4)C2)C3)c(=O)c2c(OC)ccc(OC)c21"
  Limit Qualifier: "="
  Ratio Ki: 39.9
- Compound: "CCCCCn1cc(C(=O)NC23CC4CC(CC(C4)C2)C3)c(=O)c2cc(-c3ccccc3)ccc21"
  Limit Qualifier: ">"
  Ratio Ki: 2670
- Compound: "CCCCCn1cc(C(=O)NC23CC4CC(CC(C4)C2)C3)c(=O)c2cc(Sc3ccccc3)ccc21"
  Limit Qualifier: "="
  Ratio Ki: 189
- Compound: "C=CCCCn1cc(C(=O)NC23CC4CC(CC(C4)C2)C3)c(=O)c2cc(Br)ccc21"
  Limit Qualifier: "="
  Ratio Ki: 74.4
- Compound: "CCCCCn1cc(C(=O)NC23CC4CC(CC(C4)C2)C3)c(=O)c2ccc(Sc3ccccc3)cc21"
  Limit Qualifier: "="
  Ratio Ki: 3.3
- Compound: "CCCCCn1cc(C(=O)N[C@H](C)c2ccccc2)c(=O)c2ccc(F)cc21"
  Limit Qualifier: "="
  Ratio Ki: 1.3
- Compound: "CCCCCn1cc(C(=O)NC23CC4CC(CC(C4)C2)C3)c(=O)c2cc(/C=C/c3ccc(OC)cc3)ccc21"
  Limit Qualifier: "="
  Ratio Ki: 47
- Compound: "CCCCCn1cc(C(=O)NC23CC4CC(CC(C4)C2)C3)c(=O)c2cc(F)c(-n3cccc3)cc21"
  Limit Qualifier: "="
  Ratio Ki: 38.8
- Compound: "CCCCCn1cc(C(=O)NC23CC4CC(CC(C4)C2)C3)c(=O)c2ccc([S+]([O-])c3ccccc3)cc21 (centres undefined)"
  Limit Qualifier: "="
  Ratio Ki: 8
- Compound: "CCCCCn1cc(C(=O)NC23CC4CC(CC(C4)C2)C3)c(=O)c2cc(C(F)(F)F)ccc21"
  Limit Qualifier: "="
  Ratio Ki: 217
